meta.source: PubChem BioAssay (NCI)

Tested on: SK-MEL-28 melanoma
Test Protocol: NCI-60 one-dose screen, 48 h (100 = growth as untreated, 0 = no growth, -100 = all killed)
Measurement Context: 10 µM unless noted
About 83,000 compounds went through this panel and 20% of them were active in at least one assay; those are over-represented in the sample as a whole.
Reported Metric: growth (%)
Unit % implied. Number only.

Record excerpt, results attached:
Compound	growth, %
Cc1cccc2nc3ccccc3c(Nc3ccc(NS(C)(=O)=O)cc3)c12	73
O=P(O)(O)C(O)(Cc1cccnc1)P(=O)(O)O	103
O=C(Nc1cccc(N=Cc2c(O)ccc3ccccc23)c1)c1ccccc1	107
O=C1C(Cl)=C(Nc2cccc3ccccc23)C(=O)c2ccccc21	91.4
CCOC(=O)C1=C(C)NC(=S)NC1c1ccccc1 (stereo unspecified)	112

Considering CC(C)(C)c1nn(-c2ccccc2)c2c1C(=O)CSC(c1ccc3c(c1)OCO3)N2 (stereo unspecified) , its growth with SK-MEL-28 melanoma was recorded as 109

Form field growth for item CCS(=O)(=O)Nc1cccc(Nc2c3cccc(C)c3nc3c(C)cccc23)c1OC on SK-MEL-28 melanoma: 56.9

Bench note, SK-MEL-28 melanoma: COc1nccc2c(Sc3ccccc3)nc(N)nc12 , growth reads 106

Item: Cc1cc([N+](=O)[O-])c(C)cc1N | System: SK-MEL-28 melanoma | growth: 103

Form field growth for item CCCCCCCCCCCC1=NC(C)(C)CN1CC(C)O (stereo unspecified) on SK-MEL-28 melanoma: 59.8

Form: item CCN(CC)CCNC(=O)n1cc(-c2ccncc2)c(-c2cc(Cl)cc(OC)c2)n1 ; test system SK-MEL-28 melanoma; growth: 91.3
